tested_target: human M2 receptor (human Muscarinic receptor subtype 2) (Homo sapiens, UniProt P08172)
Construct: purchased Perkin-Elmer RBHM2M; host or cells: Chinese hamster ovary cells (CHO), membranes
Sequence (P08172 whole entry): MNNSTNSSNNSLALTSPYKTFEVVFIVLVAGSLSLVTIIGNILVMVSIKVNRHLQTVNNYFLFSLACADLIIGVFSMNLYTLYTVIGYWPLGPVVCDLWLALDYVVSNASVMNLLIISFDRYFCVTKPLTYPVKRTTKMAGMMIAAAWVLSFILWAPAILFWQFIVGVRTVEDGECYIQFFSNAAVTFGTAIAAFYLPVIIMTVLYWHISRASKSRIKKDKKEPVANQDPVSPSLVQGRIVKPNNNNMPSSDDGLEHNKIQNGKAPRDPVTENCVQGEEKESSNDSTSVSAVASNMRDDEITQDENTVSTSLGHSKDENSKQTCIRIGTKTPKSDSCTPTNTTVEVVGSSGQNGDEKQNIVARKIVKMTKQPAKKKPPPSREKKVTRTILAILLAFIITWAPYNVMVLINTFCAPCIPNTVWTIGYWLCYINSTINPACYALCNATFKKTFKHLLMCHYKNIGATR
test_summary: hM2 receptor GTPγS binding
Assay type: biochemical
condition_label: CHO membranes expressing hM2, GTPγ35S binding
observed_property: Emax (%)
Quick note: give the figure in %, leave out the unit.

Please look at this molecule and report its Emax: C=CCOCC1CCCN(C[C@@H]2CCCC[C@H]2NC(=O)c2ccc(CN3CCN(C)CC3)cc2)C1 (mixture of isomers)
19

Please look at this molecule and report its Emax: O=C(N[C@H]1CCCC[C@@H]1CN1CCCCC1)c1ccc(-n2cccn2)nc1
0

Please look at this molecule and report its Emax: CCOC[C@@H]1CCCN(C[C@H]2CCCC[C@@H]2NC(=O)C2CCCCC2)C1
30

Please look at this molecule and report its Emax: CCOC[C@@H]1CCCN(C[C@H]2CCCC[C@@H]2NC(=O)C2CCc3ccccc3O2)C1 (stereo partly drawn)
54

Please look at this molecule and report its Emax: CCOC[C@@H]1CCCN(C[C@H]2CCCC[C@@H]2NC(=O)c2cc3nc(C)cc(C)n3n2)C1
0

Please look at this molecule and report its Emax: CCOC[C@@H]1CCCN(C[C@H]2CCCC[C@@H]2NC(=O)c2ccc3c(c2)OCCN3C)C1
0

Please look at this molecule and report its Emax: CCOCC1CCCN(C[C@@H]2CCCC[C@H]2NC(=O)c2ccc(-c3cnco3)cc2)C1 (mixture of isomers)
25

Please look at this molecule and report its Emax: CCOC[C@@H]1CCCN(C[C@H]2CCCC[C@@H]2NC(=O)c2ccc(-n3cnnn3)cc2)C1
27

Please look at this molecule and report its Emax: CCOC[C@@H]1CCCN(C[C@H]2CCCC[C@@H]2NC(=O)c2ccccc2)C1
34

Please look at this molecule and report its Emax: CCOC[C@@H]1CCCN(C[C@H]2CCCC[C@@H]2NC(=O)c2ccc(CNS(C)(=O)=O)cc2)C1
34

Please look at this molecule and report its Emax: CCCCC1CCCN(C[C@@H]2CCCC[C@H]2NC(=O)c2ccc(CN(CC)CC)cc2)C1 (mixture of isomers)
2

Please look at this molecule and report its Emax: CCOC[C@@H]1CCCN(C[C@H]2CCCC[C@@H]2NC(=O)c2ccc(CN(C(C)=O)C(C)=O)cc2)C1
18

Please look at this molecule and report its Emax: CCOC[C@@H]1CCCN(C[C@H]2CCCC[C@@H]2NC(=O)c2ccc(N3CCCC3)nc2)C1
60

Please look at this molecule and report its Emax: C=CCOC[C@@H]1CCCN(C[C@H]2CCCC[C@@H]2NC(=O)c2ccc(-n3ccnc3)nc2)C1
22

Please look at this molecule and report its Emax: C=CCO[C@@H]1CCCN(C[C@H]2CCCC[C@@H]2NC(=O)c2ccc(-n3cccn3)nc2)C1
50

Please look at this molecule and report its Emax: CCOC[C@@H]1CCCN(C[C@H]2CCCC[C@@H]2NC(=O)c2ccc(CNS(=O)(=O)C3CC3)cc2)C1
40

Please look at this molecule and report its Emax: CCCCC1CCCN(C[C@@H]2CCCC[C@H]2NC(=O)CCc2ccc(Cl)cc2)C1 (mixture of isomers)
38

----------
tested_target: hM1 (human Muscarinic receptor subtype 1) (Homo sapiens)
Construct: expressed in transfected cells; host or cells: CHO cells (chinese hamster ovary cells, ATCC)
Sequence (P11229 1-460): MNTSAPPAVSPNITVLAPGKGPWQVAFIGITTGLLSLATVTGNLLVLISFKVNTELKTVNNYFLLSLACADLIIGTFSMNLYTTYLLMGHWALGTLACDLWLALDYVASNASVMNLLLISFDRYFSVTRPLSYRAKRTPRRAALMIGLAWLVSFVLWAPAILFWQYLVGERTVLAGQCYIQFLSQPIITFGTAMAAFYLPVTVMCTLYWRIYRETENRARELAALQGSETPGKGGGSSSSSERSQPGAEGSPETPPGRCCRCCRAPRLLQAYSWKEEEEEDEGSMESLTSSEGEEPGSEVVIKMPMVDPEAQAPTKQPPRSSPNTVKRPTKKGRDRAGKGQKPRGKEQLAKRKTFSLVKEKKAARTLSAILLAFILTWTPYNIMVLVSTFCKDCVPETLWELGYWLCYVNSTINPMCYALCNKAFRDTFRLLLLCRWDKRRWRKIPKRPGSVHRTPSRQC
test_summary: Human M1 calcium mobilization FLIPR assay
Assay type: cell-based
condition_label: CHO cells expressing hM1, FLIPR; read-out: hM1Emax
observed_property: Emax
Put your answer as a value accompanied by its unit after it.

Please look at this compound and report its Emax: CCOC[C@@H]1CCCN(C[C@H]2CCCC[C@@H]2NC(=O)c2ccc(CNS(=O)(=O)C3CC3)cc2)C1
102%

Please look at this compound and report its Emax: C=CCOC[C@@H]1CCCN(C[C@H]2CCCC[C@@H]2NC(=O)c2ccc(-n3ccnc3)nc2)C1
95%

Please look at this compound and report its Emax: CCOC[C@@H]1CCCN(C[C@H]2CCCC[C@@H]2NC(=O)c2cnc(C)cc2C)C1
54%

Please look at this compound and report its Emax: CCOC[C@@H]1CCCN(C[C@H]2CCCC[C@@H]2NC(=O)c2cc3nc(C)cc(C)n3n2)C1
82%
